Numbers sourced from patent US6177475A.

# Tested on: MOLT-4 cells / syncytiotrophoblasts
# procedureSummary: Adhesion of uninfected MOLT-4 clone 8 cells to syncytiotrophoblasts
# Assay type: cell-based, human
# conditionSummary: Homo sapiens, MOLT-4; 1 hour, 37° C., cells not infected with HIV
measuredQuantity: IC50

- C=CCSSC=CC[S+]([O-])CC=C (stereo not shown): 60 µM

* * *

# Test system: H9RF cells / H9 cells (HIV-1RF)
# procedureSummary: HIV-induced syncytium formation, H9RF donor with H9 recipient
# Assay type: cell-based
# conditionSummary: Human immunodeficiency virus 1; H9RF donor, H9 recipient, 16 h; read-out: IC50 of Ajoene, syncytium formation
pIC50: −log10 of the molar value.
measuredQuantity: pIC50

- C=CCSSC=CC[S+]([O-])CC=C (stereo not shown): ~7.30

* * *

# Tested on: SupT1LAV-BRU cells / SupT1 cells (HIV-1LAV-BRU)
# procedureSummary: HIV-induced syncytium formation, SupT1LAV-BRU donor with SupT1 recipient
# Format: cell-based
# conditionSummary: Human immunodeficiency virus 1, SUP-T1, 16 h, read-out: IC50 of Ajoene, syncytium formation
measuredQuantity: IC50

- C=CCSSC=CC[S+]([O-])CC=C (stereo not shown) [Ajoene]: ~5 nM

* * *

# Tested on: melanoma B16 cells
# procedureSummary: Melanoma cell implantation (subcutaneous B16)
# Type: in vivo, C57BL/6 mice
# conditionSummary: Mus musculus, sc; B16 cells pretreated 15 min; tumor volume at 14 and 21 days
# Procedure: Male C57BL/6 mice were inoculated subcutaneously with 10^6 B16 cells (pretreated for 15 min with Ajoene) in their pretreatment medium, and the volume of the tumors formed was measured 14 and 21 days after the injection.
pIC50: −log10 of the molar value.
measuredQuantity: pIC50

• C=CCSSC=CC[S+]([O-])CC=C (stereo not shown) [Ajoene] = 5.60

* * *

# System: HSV-2 strain G
# procedureSummary: Herpes simplex virus infection of WI-38 fibroblasts (ELISA for HSV antigens)
# Type: cell-based
# conditionSummary: Human alphaherpesvirus 2; WI-38, 24 hours
pIC50: −log10 of the molar value.
measuredQuantity: pIC50

• C=CCSSC=CC[S+]([O-])CC=C (stereo not shown) = 5.22
